target: Amyloid-beta precursor protein (Homo sapiens); experiment: Inhibition of preformed self-induced amyloid beta (1 to 40) (unknown origin) fibril aggregation assessed as remaining fibril aggregates at 100 uM after 12 days at pH 6.60 by thioflavin-T fluorescence assay
As shown below, each of these molecules has a reported Activity value.
Give a bare numeral; the unit % is implied.

Answered examples (5):
In [3]: df
Out[3]:
                      input_smiles  quantity  value_observed
0   Oc1ccc(/C=C/c2cc(O)cc(O)c2)cc1  Activity            24.1
1          Oc1ccc(CNc2ccccc2O)cc1O  Activity            9.28
2  Oc1ccccc1/N=C/c1c(O)ccc2ccccc12  Activity            26.6
3           Oc1cccc(CNc2ccccc2O)c1  Activity            20.3
4           Oc1c(I)cc(Cl)c2cccnc12  Activity             310

Prompt: I am curious: what Activity value has been reported for `Oc1ccc(CNc2ccccc2O)cc1` ?
Response: 10.1

Prompt: I am curious: what Activity value has been reported for `Oc1ccc(/N=C/c2c(O)ccc3ccccc23)c(O)c1` ?
Response: 11

Values compiled from ChEMBL document CHEMBL3817831.
